Origin of values: ChEMBL document CHEMBL1150455

Target: Peptidyl-prolyl cis-trans isomerase FKBP1A (Homo sapiens)
Sequence (P62942 whole entry): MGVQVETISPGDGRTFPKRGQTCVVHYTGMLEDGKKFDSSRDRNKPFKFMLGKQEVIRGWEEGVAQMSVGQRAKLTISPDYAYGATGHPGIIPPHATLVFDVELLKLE
value type: IC50 (nM)

line notation	IC50 (nM)
CC[C@@H]1/C=C(\C)[C@@H](O)[C@H](C)[C@H](OC)[C@H]2O[C@@](O)(C(=O)C(=O)N3CCCC[C@H]3C(=O)O[C@H](/C(C)=C/[C@@H]3CC[C@@H](O)[C@H](OC)C3)[C@H](C)[C@@H](O)CC1=O)[C@H](C)C[C@@H]2OC	0.7

I. C=CC[C@@H]1/C=C(\C)C[C@H](C)[C@H](OC)[C@H]2O[C@@](O)(C(=O)C(=O)N3CCCC[C@H]3C(=O)O[C@H](/C(C)=C/[C@@H]3CC[C@@H](O)[C@H](OC)C3)[C@H](C)[C@@H](O)CC1=O)[C@H](C)C[C@@H]2OC
II. CC[C@@H]1/C=C(\C)[C@@H](O)[C@H](C)[C@H](OC)[C@H]2O[C@@](O)(C(=O)C(=O)N3CCCC[C@H]3C(=O)O[C@H](/C(C)=C/[C@@H]3CC[C@@H](Oc4ccc5c(ccn5C)c4)[C@H](OC)C3)[C@H](C)[C@@H](O)CC1=O)[C@H](C)C[C@@H]2OC
III. CC[C@@H]1/C=C(\C)C[C@H](C)[C@H](OC)[C@H]2O[C@@](O)(C(=O)C(=O)N3CCCC[C@H]3C(=O)O[C@H](/C(C)=C/[C@@H]3CC[C@@H](Oc4ccccc4)[C@H](OC)C3)[C@H](C)[C@@H](O)CC1=O)[C@H](C)C[C@@H]2OC
q: Rank entries according to their IC50, from the largest number down. Response field: labels, in requested order.
a: III, II, I
